- experimental.target: CLK1 (Mus musculus, UniProt P22518)
- Sequence (P22518 whole entry): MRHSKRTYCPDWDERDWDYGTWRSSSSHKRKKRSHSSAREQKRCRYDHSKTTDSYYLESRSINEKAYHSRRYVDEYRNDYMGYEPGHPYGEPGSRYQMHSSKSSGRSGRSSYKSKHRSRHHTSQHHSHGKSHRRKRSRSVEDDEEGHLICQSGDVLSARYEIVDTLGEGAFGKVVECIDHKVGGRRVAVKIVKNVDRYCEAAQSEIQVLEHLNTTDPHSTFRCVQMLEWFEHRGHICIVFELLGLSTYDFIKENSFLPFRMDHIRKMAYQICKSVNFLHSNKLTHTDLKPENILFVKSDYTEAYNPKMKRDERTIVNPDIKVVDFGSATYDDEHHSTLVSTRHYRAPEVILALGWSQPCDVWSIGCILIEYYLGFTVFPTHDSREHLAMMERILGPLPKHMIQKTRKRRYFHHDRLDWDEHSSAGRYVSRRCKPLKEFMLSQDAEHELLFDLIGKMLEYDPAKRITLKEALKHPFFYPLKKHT
- assay.text: Protein kinase assay ([γ-33P]-ATP, RS peptide substrate), CLK1
- Type: biochemical
- study.conditions: 10 µM compound, compared to controls; read-out: Residual Activity at 10 µM CLK1
Please respond with criterion met when measured remaining activity at 10 µM is strictly beneath 60%, and with criterion not met in all other cases.

>>> class("Cc1cccc2c(C#N)c(-c3ccccc3)[nH]c12")
"criterion met"
>>> class("COc1ccc(-c2[nH]c3c(Cl)cccc3c2C#N)cc1")
"criterion met"
>>> class("N#Cc1c(-c2ccc(Cl)cc2)[nH]c2c(I)cccc12")
"criterion met"
>>> class("Cn1cc(C#N)c2cccc(Cl)c21 [Compound 13c]")
"criterion met"
>>> class("N#Cc1c(-c2ccc(Cl)cc2)[nH]c2c(Cl)cccc12")
"criterion not met"
>>> class("N#Cc1cn(Cc2ccccc2)c2c(Cl)cccc12 [Compound 13a]")
"criterion not met"
>>> class("N#Cc1cn(Cc2ccccc2)c2c(Br)cccc12 [Compound 13b]")
"criterion met"

###

- experimental.target: DYRK3 (Homo sapiens, UniProt O43781)
- Sequence (O43781 1-588): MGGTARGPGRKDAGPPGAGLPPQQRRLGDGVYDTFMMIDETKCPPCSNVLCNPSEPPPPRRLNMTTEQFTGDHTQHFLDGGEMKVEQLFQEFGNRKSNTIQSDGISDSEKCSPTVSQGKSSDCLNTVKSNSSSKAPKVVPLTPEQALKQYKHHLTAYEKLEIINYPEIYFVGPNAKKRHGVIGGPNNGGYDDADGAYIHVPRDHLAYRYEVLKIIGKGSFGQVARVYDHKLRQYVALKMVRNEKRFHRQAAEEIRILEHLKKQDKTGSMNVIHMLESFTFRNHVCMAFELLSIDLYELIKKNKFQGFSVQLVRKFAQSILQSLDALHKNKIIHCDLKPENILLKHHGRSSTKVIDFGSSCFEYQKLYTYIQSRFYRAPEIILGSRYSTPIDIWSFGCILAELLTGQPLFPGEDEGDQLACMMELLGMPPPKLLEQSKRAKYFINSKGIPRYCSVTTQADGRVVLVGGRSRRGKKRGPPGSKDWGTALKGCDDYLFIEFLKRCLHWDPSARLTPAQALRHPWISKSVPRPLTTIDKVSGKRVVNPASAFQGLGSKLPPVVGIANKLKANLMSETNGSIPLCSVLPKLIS
- assay.text: Protein kinase assay ([γ-33P]-ATP, RS peptide substrate), DYRK3
- Assay type: biochemical
- study.conditions: 10 µM compound; read-out: Inhibition at 10 µM DYRK3 (class symbol)
property.measured: inhibition at 10 µM

>>> assay_result("Cn1c(-c2ccccc2)c(C#N)c2cccc(I)c21 [Compound 13f]")
"< 20%"
>>> assay_result("N#Cc1c(CC(O)CO)[nH]c2c(Cl)cccc12 (stereo not drawn)")
"< 20%"
>>> assay_result("N#Cc1c(C2CCCC2)[nH]c2c(I)cccc12")
"< 20%"
>>> assay_result("Cn1c(-c2ccccc2)c(C#N)c2cccc(Br)c21 [Compound 13e]")
"< 20%"
>>> assay_result("N#Cc1c(-c2cccnc2)[nH]c2c(I)cccc12")
"< 20%"
>>> assay_result("N#Cc1c(-c2ccccc2)[nH]c2ccccc12")
"< 20%"

###

- experimental.target: DYRK3 (Homo sapiens, UniProt O43781)
- assay.text: Protein kinase assay ([γ-33P]-ATP, RS peptide substrate), DYRK3
- Assay type: biochemical
- study.conditions: 10 µM compound, compared to controls; read-out: Residual Activity at 10 µM DYRK3
property.measured: remaining activity at 10 µM

>>> assay_result("Cn1cc(C#N)c2cccc(Cl)c21 [Compound 13c]")
"95%"
>>> assay_result("N#Cc1c(-c2ccc(Cl)cc2)[nH]c2c(I)cccc12 [Compound 6m]")
"101%"
>>> assay_result("N#Cc1cn(Cc2ccccc2)c2c(Cl)cccc12 [Compound 13a]")
"95%"
>>> assay_result("Cc1cccc2c(C#N)c(-c3ccccc3)[nH]c12 [Compound 6e]")
"105%"

Data provenance: paper PMC6017736
